- System: BCRP (Q141K variant)
- testName: alamarBlue cell viability, HEK cells expressing Q141K BCRP
- Format: cell-based
- assayConditions: human
readout: CC50 at 72 h (µM)

[[record]]
structure = "C[C@H]1CCCC(=O)CCC/C=C/c2cc(O)cc(O)c2C(=O)O1"
testtarget = "BCRP (Q141K variant)"
assayresult = 40.6


---

# key: entry, value: IC50
- testTarget: human BCRP (Homo sapiens, UniProt Q9UNQ0)
- testName: biochemical
- assayConditions: Inhibitory Concentration (IC50) Vesicle Assay, Lucifer yellow (50 μM) transport, 2 min, 37°C
readout: IC50 (µM)

[[record]]
molecule = "CC(C)(C)C(O)(CCc1ccc(Cl)cc1)Cn1cncn1 (centres unmarked)"
readout = "IC50"
unitabbrev = "µM"
assayresult = 41.1

[[record]]
molecule = "CCCCC(C#N)(Cn1cncn1)c1ccc(Cl)cc1 (centres unmarked)"
readout = "IC50"
unitabbrev = "µM"
assayresult = 62.7

[[record]]
molecule = "Fc1ccc([C@]2(Cn3cncn3)O[C@H]2c2ccccc2Cl)cc1 (racemic)"
readout = "IC50"
unitabbrev = "µM"
assayresult = 64.7

[[record]]
molecule = "COc1ccc(C(c2ccc(OC)cc2)C(Cl)(Cl)Cl)cc1"
readout = "IC50"
unitabbrev = "µM"
assayresult = 38

[[record]]
molecule = "C#CCOS(=O)OC1CCCCC1Oc1ccc(C(C)(C)C)cc1 (centres unmarked)"
readout = "IC50"
unitabbrev = "µM"
assayresult = 31.8


---

- testName: alamarBlue cell viability, HEK cells expressing empty vector
- Type: cell-based
- assayConditions: human
readout: CC50 (nM)

[[record]]
compound = "O=C1c2c(O)ccc(O)c2C(=O)c2c(NCCNCCO)ccc(NCCNCCO)c21 [Mitoxantrone, mitoxantrone, reference compound]"
assayresult = 340


---

- testTarget: BCRP in BeWo cells (Homo sapiens, UniProt Q9UNQ0)
- Sequence (Q9UNQ0 1-655): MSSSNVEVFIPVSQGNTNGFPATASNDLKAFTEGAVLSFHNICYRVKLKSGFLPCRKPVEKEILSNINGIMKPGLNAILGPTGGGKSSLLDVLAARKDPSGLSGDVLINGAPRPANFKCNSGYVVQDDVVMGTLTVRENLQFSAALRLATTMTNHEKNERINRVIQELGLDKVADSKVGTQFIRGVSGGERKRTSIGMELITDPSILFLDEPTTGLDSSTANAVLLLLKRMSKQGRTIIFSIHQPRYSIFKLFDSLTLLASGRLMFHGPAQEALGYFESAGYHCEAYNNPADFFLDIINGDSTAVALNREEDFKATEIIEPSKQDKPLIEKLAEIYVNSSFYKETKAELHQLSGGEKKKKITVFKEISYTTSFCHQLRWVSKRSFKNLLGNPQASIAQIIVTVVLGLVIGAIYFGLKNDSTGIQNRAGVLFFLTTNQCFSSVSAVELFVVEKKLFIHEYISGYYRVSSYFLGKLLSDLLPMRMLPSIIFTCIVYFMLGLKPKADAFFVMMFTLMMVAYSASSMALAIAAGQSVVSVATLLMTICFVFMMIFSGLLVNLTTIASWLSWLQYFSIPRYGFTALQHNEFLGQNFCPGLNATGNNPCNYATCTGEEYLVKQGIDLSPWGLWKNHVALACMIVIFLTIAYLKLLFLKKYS
- assayConditions: BeWo cells, Hoechst 33342 15 μM
readout: Concentration that increased intracellular Hoechst 33342 fluorescence (µM)

[[record]]
molecule = "COc1ccc(C(c2ccc(OC)cc2)C(Cl)(Cl)Cl)cc1 [Methoxychlor, methoxychlor]"
relationqualifier = "="
assayresult = 100

[[record]]
molecule = "C[C@H]1CCCC(=O)CCC/C=C/c2cc(O)cc(O)c2C(=O)O1 [Zearalenone, zearalenone]"
relationqualifier = "="
assayresult = 50

[[record]]
molecule = "CCC[CH2][Sn]([CH2]CCC)[CH2]CCC [Tributyltin, tributyltin]"
relationqualifier = "≥"
assayresult = 10

[[record]]
molecule = "CC(C)(c1ccc(O)cc1)c1ccc(O)cc1 [Bisphenol A, bisphenol A]"
relationqualifier = "="
assayresult = 50


---

- testTarget: human BCRP (Homo sapiens)
- testName: biochemical
- assayConditions: read-out: Inhibitory Concentration (IC50) Vesicle Assay; Lucifer yellow (50 μM) transport, 2 min, 37°C
readout: IC50

[[record]]
compound = "CCC[CH2][Sn]([CH2]CCC)[CH2]CCC [Tributyltin, tributyltin]"
assayresult = "30.5 µM"


---

- Test system: BCRP (wild-type)
- testName: alamarBlue cell viability, HEK cells expressing WT BCRP
- Type: cell-based
- assayConditions: human
readout: CC50

[[record]]
compound = "O=C1c2c(O)ccc(O)c2C(=O)c2c(NCCNCCO)ccc(NCCNCCO)c21 [Mitoxantrone, mitoxantrone, reference compound]"
assayresult = "3.19 µM"


---

- testTarget: human BCRP (Homo sapiens, UniProt Q9UNQ0)
- testName: biochemical
- assayConditions: Inhibitory Concentration (IC50) Vesicle Assay, Lucifer yellow (50 μM) transport, 2 min, 37°C
readout: IC50 (µM)

[[record]]
molecule = "CCCN(CCOc1c(Cl)cc(Cl)cc1Cl)C(=O)n1ccnc1"
testtarget = "human BCRP (Homo sapiens, UniProt Q9UNQ0)"
readout = "IC50"
unitabbrev = "µM"
assayresult = 18.7

[[record]]
molecule = "CCCC1COC(Cn2cncn2)(c2ccc(Cl)cc2Cl)O1 (stereo not shown)"
testtarget = "human BCRP (Homo sapiens, UniProt Q9UNQ0)"
readout = "IC50"
unitabbrev = "µM"
assayresult = 51.3

[[record]]
molecule = "C[C@H]1CCCC(=O)CCC/C=C/c2cc(O)cc(O)c2C(=O)O1"
testtarget = "human BCRP (Homo sapiens, UniProt Q9UNQ0)"
readout = "IC50"
unitabbrev = "µM"
assayresult = 4.8

[[record]]
molecule = "CC(C)(c1ccc(O)cc1)c1ccc(O)cc1"
testtarget = "human BCRP (Homo sapiens, UniProt Q9UNQ0)"
readout = "IC50"
unitabbrev = "µM"
assayresult = 55.5


---

- testTarget: human BCRP (Homo sapiens, UniProt Q9UNQ0)
- testName: biochemical
pIC50: −log10 of the molar value.
Collected pIC50 values appear next to each entry.
readout: pIC50

[[record]]
molecule = "C#CCOS(=O)OC1CCCCC1Oc1ccc(C(C)(C)C)cc1 (stereo not drawn)"
testtarget = "human BCRP (Homo sapiens, UniProt Q9UNQ0)"
relationqualifier = "="
assayresult = 5.59

[[record]]
molecule = "CCCC1COC(Cn2cncn2)(c2ccc(Cl)cc2Cl)O1 (stereo not drawn)"
testtarget = "human BCRP (Homo sapiens, UniProt Q9UNQ0)"
relationqualifier = "="
assayresult = 4.20

[[record]]
molecule = "Fc1ccc([C@]2(Cn3cncn3)O[C@H]2c2ccccc2Cl)cc1 (racemic)"
testtarget = "human BCRP (Homo sapiens, UniProt Q9UNQ0)"
relationqualifier = "<"
assayresult = 4.00

[[record]]
molecule = "CCCN(CCOc1c(Cl)cc(Cl)cc1Cl)C(=O)n1ccnc1"
testtarget = "human BCRP (Homo sapiens, UniProt Q9UNQ0)"
relationqualifier = "="
assayresult = 4.37

[[record]]
molecule = "CCCCC(C#N)(Cn1cncn1)c1ccc(Cl)cc1 (stereo not drawn)"
testtarget = "human BCRP (Homo sapiens, UniProt Q9UNQ0)"
relationqualifier = "="
assayresult = 4.10

[[record]]
molecule = "COc1ccc(C(c2ccc(OC)cc2)C(Cl)(Cl)Cl)cc1"
testtarget = "human BCRP (Homo sapiens, UniProt Q9UNQ0)"
relationqualifier = "="
assayresult = 5.28

[[record]]
molecule = "C[C@H]1CCCC(=O)CCC/C=C/c2cc(O)cc(O)c2C(=O)O1"
testtarget = "human BCRP (Homo sapiens, UniProt Q9UNQ0)"
relationqualifier = "="
assayresult = 4.39

[[record]]
molecule = "CC(C)(c1ccc(O)cc1)c1ccc(O)cc1"
testtarget = "human BCRP (Homo sapiens, UniProt Q9UNQ0)"
relationqualifier = "<"
assayresult = 4.00

[[record]]
molecule = "CC(C)(C)C(O)(CCc1ccc(Cl)cc1)Cn1cncn1 (stereo not drawn)"
testtarget = "human BCRP (Homo sapiens, UniProt Q9UNQ0)"
relationqualifier = "<"
assayresult = 4.00

